Just for reference, paper PMC7919492 is where these values come from.

Assay read-out pIC50; system under study: UniProt P27487.
Sequence (P27487 whole entry): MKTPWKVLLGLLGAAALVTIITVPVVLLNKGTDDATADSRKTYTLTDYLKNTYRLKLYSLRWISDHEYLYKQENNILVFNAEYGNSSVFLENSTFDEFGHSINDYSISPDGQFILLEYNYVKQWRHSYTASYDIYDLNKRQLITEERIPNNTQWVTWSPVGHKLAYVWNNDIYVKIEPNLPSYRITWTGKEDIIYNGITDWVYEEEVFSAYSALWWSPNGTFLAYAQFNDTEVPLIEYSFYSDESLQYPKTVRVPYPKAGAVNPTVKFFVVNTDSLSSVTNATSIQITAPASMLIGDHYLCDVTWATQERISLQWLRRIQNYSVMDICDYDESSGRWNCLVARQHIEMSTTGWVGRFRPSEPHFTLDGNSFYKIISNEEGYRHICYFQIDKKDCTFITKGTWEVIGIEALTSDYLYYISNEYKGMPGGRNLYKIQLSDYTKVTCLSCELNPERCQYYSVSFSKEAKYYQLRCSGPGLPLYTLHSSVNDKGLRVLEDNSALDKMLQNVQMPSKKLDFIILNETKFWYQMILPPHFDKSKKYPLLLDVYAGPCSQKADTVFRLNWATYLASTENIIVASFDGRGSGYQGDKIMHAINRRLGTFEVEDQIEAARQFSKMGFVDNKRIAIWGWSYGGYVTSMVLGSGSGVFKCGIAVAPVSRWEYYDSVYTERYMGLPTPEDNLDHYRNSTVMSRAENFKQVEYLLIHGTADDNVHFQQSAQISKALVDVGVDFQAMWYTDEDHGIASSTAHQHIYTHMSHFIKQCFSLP
pIC50: −log10 of the molar value.

Consider the following illustrative entries.
| molecule | pIC50 |
| --- | --- |
| COc1ccc(C=CC(=O)c2c(O)c(Cc3c(O)c4c(c(C(=O)C=Cc5ccc(OC)cc5)c3O)OC(C)(C)C=C4)c(O)c3c2OC(C)(C)C=C3)cc1 (stereo in doubt) [Compound 4a] | < 4.30 |
| COc1c2c(c(C(=O)/C=C\c3ccccc3)c(O)c1Cc1c(O)c(C(=O)/C=C\c3ccccc3)c3c(c1OC)C=CC(C)(C)O3)OC(C)(C)C=C2 [Compound 12] | < 4.30 |
| CC1(C)C=Cc2c(O)cc(O)c(C(=O)/C=C/c3ccc(O)cc3)c2O1 [Compound 2, dehydrocyclodesmethylxanthohumol, reference compound] | < 4.30 |

Next item in the queue.
(Q) For the molecule shown here, CC1(C)C=Cc2c(O)c(Cc3c(O)c4c(c(C(=O)C=Cc5ccsc5)c3O)OC(C)(C)C=C4)c(O)c(C(=O)C=Cc3ccsc3)c2O1 (stereo in doubt) [Compound 4d] , give the reported pIC50.
(A) 4.63
